Listing of entries alongside the reported GI50.
- System: SNB-75
- Method Summary: NCI tumour cell line growth inhibition, 48 h
The source made the active and inactive calls. Rule as the data show it: active = GI50 up to about 1.1 µM and inactive = higher.

Compound | Measured Target | GI50
COc1ccc2c(c1)C1Oc3ccccc3CC1(O)CO2 (centres undefined) | SNB-75 | > 100 µM (inactive)

Param item = O=C(Nc1cc(Cl)c(I)c(Cl)c1)C(F)(F)F ; retrieve measured GI50.
20.8 µM (inactive)

Return reported GI50; argument: O=C1/C(=C/c2ccc([N+](=O)[O-])cc2)CNC/C1=C\c1ccc([N+](=O)[O-])cc1
2.6 µM (inactive)

State the recorded GI50 for this entry: Cc1ccc(S(=O)(=O)N2CCSCCSCCSCCN(S(=O)(=O)c3ccc(C)cc3)CC2)cc1
61 µM (inactive)
